The measurements presented in this section are drawn from ChEMBL document CHEMBL3301361.

assay: in vitro; settings: human, plasma, PPB
Record form. Attribute: fraction unbound at 5 h. Fill in for each entry.
Give bare numbers.

# Smiles Code, fraction unbound at 5 h
records = [
    ("OCC(CO)Nc1nc(SCc2cccc(F)c2F)nc2nc(NC3CC3)sc12", 0.051),
    ("O=C(Cc1cccs1)Nc1ccon1", 0.563),
    ("CC1(CCCc2cc(=O)oc3[nH]c(=O)[nH]c(=O)c23)CC1", 0.0149),
    ("COc1ccc2ccc(=O)n(CCN3CCC(NCc4cc5c(cn4)OCCO5)CC3)c2n1", 0.314),
]

Quick one: fraction unbound at 5 h for Cc1cn([C@H]2CCCN([C@H](CC3CCOCC3)c3ccc(C(=O)O)c(Oc4cccc(Cl)c4)c3)C2)c(=O)[nH]c1=O ? 0.107

====

Record form. Attribute: log10 of solubility thermodynamic. Fill in for each entry.
experiment: physchem; conditions: pH 7.4 buffer
Please be aware that the numbers have been log10-transformed from solubility thermodynamic in µM.

# Compound, log10 of solubility thermodynamic
data = [
    ("COc1cc2c(Nc3ccc(Br)cc3F)ncnc2cc1OC/C=C/CN1CCCC1", 2.38),
    ("Cc1ncc(-c2nc(Nc3ccc(N4CCOCC4)cc3)ncc2F)n1C(C)C", 2.07),
]

For every item in the list below, what is its measured log10 of solubility thermodynamic?
1. NC(=O)Nc1sc(-c2ccccc2)cc1C(=O)NCc1ccccc1
2. O=C(c1ccccc1)C1CCN(C(=O)c2ccc(Cl)cc2)CC1
3. COc1ccc2[nH]c(=O)c3c(c2c1)OC(C)(C)C=C3 [HAPLAMINE]
4. c1ccc(-c2cn3cccnc3n2)cc1
5. CCc1cc(NC(=O)Cc2ccc(Oc3ccnc4cc(OC)ccc34)cc2OC)no1
6. Cn1cnc(-c2cccc(NC(=O)Nc3cc(C(F)(F)F)ccc3F)c2)c1-c1cc2c(N)ncnc2s1
7. COc1cc2ncnc(Nc3cc(NC(=O)c4cccc(N5CCOCC5)c4)ccc3C)c2cc1OC

1: -0.10; 2: 1.46; 3: 1.94; 4: 2.83; 5: 0.62; 6: -0.30; 7: 1.16

Quick one: log10 of solubility thermodynamic for COc1cc(N2CCN(C(C)=O)CC2)ccc1Nc1ncc(OC)c(-c2cnc3ccccn23)n1 ? 0.11

====

assay: physchem; settings: pH 7.4 buffer
Record form. Attribute: solubility thermodynamic. Fill in for each entry.
Answers are plain numbers, in µM.

These recorded examples may help you get a feel for the data.
# Smiles Code, solubility thermodynamic, µM
records = [
    ("COc1cc2ncnc(Nc3ccc(F)c(Cl)c3)c2cc1OCCCN1CCCCC1", 20),
    ("Cc1cc(C)cc(-c2[nH]c3sc(C(C)(C)C(=O)N4C5CCC4CC5)cc3c2CN2CCN(CC(=O)N3CCCC3)CC2)c1", 1.7),
    ("COc1cc(Nc2cc(Oc3cccnc3)ccn2)cc(OC)c1OC", 93.3),
]

Here's the next entry for you.
Quick one: solubility thermodynamic for COc1cc(OC2CCOCC2)c2c(Nc3ccc(F)c(Cl)c3)ncnc2c1 ? 0.1

====

assay: in vitro; conditions: hepatocytes
Reported Endpoint: hepatocyte CLint (µL/min/1e6 cells)
Answers are plain numbers, in µL/min/1e6 cells.

These recorded examples may help you get a feel for the data.
# Smiles Code, Test Result
data = [
    ("CNc1nc(C)c(-c2nc(Nc3cccc(N4CCNCC4)c3)ncc2C#N)s1", 12.3),
    ("COc1cccc2c1c(NS(=O)(=O)c1ccc(Cl)s1)nn2Cc1cccc(CNC(=O)[C@@H]2COCCN2)c1", 26),
    ("Cc1nc2ncnn2c(O)c1CCOC(=O)c1c(F)cccc1F", 64.3),
    ("CCCC(C)(C)C[C@H](c1ccc(C(=O)O)c(Oc2cccc(Cl)c2)c1)N1CCC[C@H](n2cc(C)c(=O)[nH]c2=O)C1", 52.5),
    ("N[C@@H]1CCCN(c2c(/C=C3\\SC(=O)NC3=O)cccc2-c2ccncc2)C1", 8.91),
]

For every item in the list below, what is its measured hepatocyte CLint?
1. Clc1cccc(-c2cnc3ccc(NC4CCOCC4)nn23)c1
2. COc1ccc(CC(C)(C)NC[C@H](O)c2cc(O)cc3c2OCC(=O)N3)cc1

[14.8, 14]

For every item in the list below, what is its measured hepatocyte CLint?
1. CCC(CC)NC(=O)c1cnn(-c2ccccc2Cl)c1NS(=O)(=O)c1ccc(C)cc1
2. CCC[C@@H](CNC(=O)c1nc(Cl)c(N)nc1N)[N+](C)(C)CCCc1ccc(OC)cc1
3. CS(=O)(=O)c1ccc([C@H](CC2CCCC2)C(=O)Nc2nccs2)cc1

1. 56
2. 24
3. 35.5

For every item in the list below, what is its measured hepatocyte CLint?
1. O=C1COc2c(CCNCCN(C(=O)CCNCCc3ccc(Cl)c(Cl)c3)C3CCCCC3)ccc(O)c2N1
2. COc1cc(C(=O)OCCCCNC(=N)N)cc(OC)c1O
3. CC(C)c1ccc(NC(=O)Cn2cnc3c2c(=O)n(C)c(=O)n3C)cc1
4. CNS(=O)(=O)Cc1ccc2[nH]cc(CCN(C)C)c2c1
5. C[C@@H]1CN(c2ccc(F)cc2C(F)(F)F)CCN1S(=O)(=O)c1ccc(C(N)=O)cc1Cl
6. Cc1ccc(S(=O)(=O)Nc2c(C(=O)NCc3ccccc3)cnn2-c2ccccc2)cc1
7. O=C(c1ccc(F)cc1)C1CCN(CCn2c(=O)[nH]c3ccccc3c2=O)CC1

1. 22
2. 138
3. 16.6
4. 8
5. 63.1
6. 40
7. 24.6
